system: Staphylococcus aureus; assay: Antibacterial activity against methicillin resistant Staphylococcus aureus ATCC BAA-1556 incubated for 24 hrs; format: functional
Square brackets hold non-standard residues; d marks the D form. Peptide text beside a SMILES is read from it. Dip = N[C@H](C(=O)O)C(c1ccccc1)c1ccccc1; 2Nal = N[C@@H](Cc1ccc2ccccc2c1)C(=O)O
# MBC annotations
Dear colleague, please return just the value in µg/mL, with no unit written.

COMPOUND	TESTED_ON	UNITS_LABEL	MBC
CCCCCCCCCC(=O)N[C@@H](Cc1c[nH]c2ccccc12)C(=O)N[C@H](CC(N)=O)C(=O)N[C@@H](CC(=O)O)C(=O)N[C@@H]1C(=O)NCC(=O)N[C@@H](CCCN)C(=O)N[C@@H](CC(=O)O)C(=O)N[C@H](C)C(=O)N[C@@H](CC(=O)O)C(=O)NCC(=O)N[C@H](CO)C(=O)N[C@@H]([C@H](C)CC(=O)O)C(=O)N[C@@H](CC(=O)c2ccccc2N)C(=O)O[C@@H]1C	Staphylococcus aureus	µg/mL	6.2
O=C(O)c1cn(C2CC2)c2cc(N3CCNCC3)c(F)cc2c1=O [CIPROFLOXACIN]	Staphylococcus aureus	µg/mL	50
N=C(N)NCCC[C@@H]1NC(=O)[C@H](CCCNC(=N)N)NC(=O)[C@H](CCCNC(=N)N)NC(=O)[C@H](C(c2ccccc2)c2ccccc2)NC(=O)[C@H](C(c2ccccc2)c2ccccc2)NC(=O)[C@H](C(c2ccccc2)c2ccccc2)NC(=O)[C@H](CCCNC(=N)N)NC1=O (cyclo(RRRR[Dip][Dip][Dip]))	Staphylococcus aureus	µg/mL	6.2

Now examine the next entry.
Input: Look up MBC: N=C(N)NCCC[C@@H]1NC(=O)[C@H](CCCNC(=N)N)NC(=O)[C@H](CCCNC(=N)N)NC(=O)[C@H](Cc2ccc3ccccc3c2)NC(=O)[C@H](Cc2ccc3ccccc3c2)NC(=O)[C@H](Cc2ccc3ccccc3c2)NC(=O)[C@H](CCCNC(=N)N)NC1=O (cyclo(RRRR[2Nal][2Nal][2Nal]))
Output: 6.2

---

experiment: Cytotoxicity against HEK293 assessed as cell viability at 250 ug/ml incubated for 24 hrs by microplate spectrophotometer analysis method relative to control; format: toxicity, cell-based; conditions: human, HEK293 cells, at 250 µg/mL, read-out: Activity
Square brackets hold non-standard residues; d marks the D form. Peptide text beside a SMILES is read from it. 2Nal = N[C@@H](Cc1ccc2ccccc2c1)C(=O)O
RECORDED_ENDPOINT: viability at 24 h, 250 ug/ml (%)
State the answer as a number, implicitly in %.

Input: Which viability at 24 h, 250 ug/ml reading was recorded for the molecule N=C(N)NCCC[C@H](NC(=O)[C@H](CCCNC(=N)N)NC(=O)[C@H](CCCNC(=N)N)NC(=O)[C@@H](N)CCCNC(=N)N)C(=O)N[C@@H](Cc1ccc2ccccc2c1)C(=O)N[C@@H](Cc1ccc2ccccc2c1)C(=O)N[C@@H](Cc1ccc2ccccc2c1)C(=O)O (H-RRRR[2Nal][2Nal][2Nal]-OH) ?
Output: 69

---

tested on: Lipid bilayer; experiment: Membrano-lytic effect in mammalian membrane mimic DOPC/cholesterol (10:1) large unilamellar vesicles assessed as calcein leakage measured at 50 microg/ml measured upto 100 mins for every 10 mins by multimode microplate reader assay; assay type: cell membranes; conditions: dose 50.0 µg/ml
Square brackets hold non-standard residues; d marks the D form. Peptide text beside a SMILES is read from it. Dip = N[C@H](C(=O)O)C(c1ccccc1)c1ccccc1; 2Nal = N[C@@H](Cc1ccc2ccccc2c1)C(=O)O
RECORDED_ENDPOINT: Activity (%)
Provide only the numeric value, understood in %.

COMPOUND	RECORDED_ENDPOINT	MEAS_VALUE
N=C(N)NCCC[C@@H]1NC(=O)[C@H](CCCNC(=N)N)NC(=O)[C@H](CCCNC(=N)N)NC(=O)[C@H](Cc2ccc3ccccc3c2)NC(=O)[C@H](Cc2ccc3ccccc3c2)NC(=O)[C@H](Cc2ccc3ccccc3c2)NC(=O)[C@H](CCCNC(=N)N)NC1=O (cyclo(RRRR[2Nal][2Nal][2Nal]))	Activity	14

Input: # Activity lookup, item N=C(N)NCCC[C@H](NC(=O)[C@H](CCCNC(=N)N)NC(=O)[C@@H](N)CCCNC(=N)N)C(=O)N[C@@H](CCCNC(=N)N)C(=O)N[C@H](C(=O)N[C@H](C(=O)N[C@H](C(=O)O)C(c1ccccc1)c1ccccc1)C(c1ccccc1)c1ccccc1)C(c1ccccc1)c1ccccc1 (H-RRRR[Dip][Dip][Dip]-OH)
Output: 8

Input: Fill in the blank: the reported Activity of `CCCCCCCCCC(=O)N[C@@H](Cc1c[nH]c2ccccc12)C(=O)N[C@H](CC(N)=O)C(=O)N[C@@H](CC(=O)O)C(=O)N[C@@H]1C(=O)NCC(=O)N[C@@H](CCCN)C(=O)N[C@@H](CC(=O)O)C(=O)N[C@H](C)C(=O)N[C@@H](CC(=O)O)C(=O)NCC(=O)N[C@H](CO)C(=O)N[C@@H]([C@H](C)CC(=O)O)C(=O)N[C@@H](CC(=O)c2ccccc2N)C(=O)O[C@@H]1C` is ____.
Output: 5
